target: pooled human IgG
endpoint: Enzyme Activity Endpoint Assay (purified): Fc (ng/µL)
Enter your answer as a number in ng/µL; do not include the unit.

PRT-330 (protein) MTITSVWTKGVTPPTPEDFRENNEDVLHAPYVANQGWYDITKTFDGKDNLLCGAATAGNMLHWWFDQNKEEIERYLKKHPEKQKIIFGNQELFDVKAAIDTKDSQTNSKLFDYFRDKAFPGLSARQLGVFPDLVLDMFINGYYLNLGKTQSTDVNRPYQDKDKRGGIFDAVFTRGVQTTLLTARHDLKNKGLNEISDLIKQELTEGKALALSHTYANVRINHVINLWGADFDAEGNLIAIYVTDSDANASIGMKKYFVGRNANGKVAISAKKIEGDNIGAQVLGLFTLSTGQDQWQKLS; 369

Next item in the queue.
Using the record for PRT-634 (protein) MQITSVWTKGVTPLTPEQFRYNNYDVIHAPYKPNQGWYDITKAFDGKDNLLCGAATAGNMLHWWFDQNKTEIEAYLSKHPEKQKIIFNNQELFDLKAAIDTKDSQTNSQLFNYFRDKAFPNLSARQLGVMPDLVLDMFINGYYLNVFKTQSTDVNRPYQDKDKRGGIFDAVFTRGDQTTLLTARHDLKNKGLNDISTIIKQELTEGKALALSHTYANVSISHVINLWGADFNAEGNLEAIYVTDSDANASIGMKKYFVGINAHGHVAISAKKIEGENIGAQVLGLFTLSSGKDIWQKLSLEHHHHHH , report its Enzyme Activity Endpoint Assay (purified): Fc.
394
